Catalogue of molecules with associated GI50
Test system: COLO 205
Assay: NCI tumour cell line growth inhibition, 48 h
Activity calls are given as the source filed them. Rule as the data show it: active = GI50 up to about 1.1 µM and inactive = higher.

Record excerpt, results attached:
S=c1nc(Nc2ccc(Br)cc2)c2c3c(sc2[nH]1)CN(N1CCc2c(sc4[nH]c(=S)nc(Nc5ccc(Br)cc5)c24)C1)CC3
23.6 µM (inactive)
CCOC(=O)C1=C(Nc2ccc(Cl)c(Cl)c2)OC/C1=N\NS(=O)(=O)c1ccc(C)cc1
> 100 µM (inactive)
Clc1ccc(Cc2nc3ccccc3nc2-c2cccc(Br)c2)cc1
3.17 µM (inactive)
N#CC(C(=O)C(=O)Nc1c(Cl)cccc1Cl)c1ccccc1 (centres undefined)
> 10 µM (inactive)
CC(=O)OCC1=C(COC(C)=O)C(=O)c2c(O)ccc(O)c2C1=O
2.38 µM (inactive)
CCN(CC)C(=S)SC(C(=O)Nc1nnc(-c2ccc(Cl)cc2)o1)c1ccccc1 (centres undefined)
4.06 µM (inactive)

QUERY: Quick check: GI50 of CC[N+]1(C)CCC(O)(c2ccc(Cl)c(Cl)c2)C(C(=O)c2ccc(Cl)c(Cl)c2)C1 (centres undefined) ?
RESULT: > 10 µM (inactive)

QUERY: Quick check: GI50 of `C=CCN1CN(c2ccccc2)C2(CCN(CCCC3(c4ccc(F)cc4)OCCO3)CC2)C1=O` ?
RESULT: 15.3 µM (inactive)

QUERY: Quick check: GI50 of `CS(=O)(=O)OC1CCN(C2(c3cccc(O)c3)CCCCC2)CC1` ?
RESULT: 32.6 µM (inactive)
